Just for reference, ChEMBL document CHEMBL5365437 is where these values come from.

Molecular target: AMP-activated protein kinase (AMPK) alpha-1/beta-1/gamma-1 (Homo sapiens) (UniProt P54619+Q9Y478+Q13131)
Sequence (P54619 whole entry): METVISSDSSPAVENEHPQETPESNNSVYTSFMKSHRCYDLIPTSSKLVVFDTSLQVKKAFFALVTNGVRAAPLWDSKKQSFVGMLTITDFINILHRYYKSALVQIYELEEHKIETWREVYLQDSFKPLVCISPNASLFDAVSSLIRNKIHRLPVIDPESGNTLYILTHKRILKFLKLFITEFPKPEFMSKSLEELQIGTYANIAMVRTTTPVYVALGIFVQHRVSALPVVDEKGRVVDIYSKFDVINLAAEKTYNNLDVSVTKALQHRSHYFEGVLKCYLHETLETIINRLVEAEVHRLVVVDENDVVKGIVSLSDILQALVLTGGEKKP
Sequence (Q13131 whole entry partner): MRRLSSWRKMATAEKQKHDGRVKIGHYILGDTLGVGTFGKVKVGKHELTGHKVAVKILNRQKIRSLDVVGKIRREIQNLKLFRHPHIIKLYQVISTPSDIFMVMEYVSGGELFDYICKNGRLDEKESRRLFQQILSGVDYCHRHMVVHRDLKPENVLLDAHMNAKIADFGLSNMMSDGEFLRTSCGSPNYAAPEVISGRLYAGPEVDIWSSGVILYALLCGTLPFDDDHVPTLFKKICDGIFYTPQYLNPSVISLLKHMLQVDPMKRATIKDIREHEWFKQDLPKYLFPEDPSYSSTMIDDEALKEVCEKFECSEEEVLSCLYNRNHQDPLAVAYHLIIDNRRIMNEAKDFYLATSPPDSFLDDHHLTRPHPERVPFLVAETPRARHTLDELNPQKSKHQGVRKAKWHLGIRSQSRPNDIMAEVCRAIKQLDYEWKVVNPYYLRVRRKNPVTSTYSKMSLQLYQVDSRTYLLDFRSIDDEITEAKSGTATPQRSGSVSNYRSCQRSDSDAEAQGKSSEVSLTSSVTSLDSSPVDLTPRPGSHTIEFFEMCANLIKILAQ
Sequence (Q9Y478 2-270 partner limits assumed): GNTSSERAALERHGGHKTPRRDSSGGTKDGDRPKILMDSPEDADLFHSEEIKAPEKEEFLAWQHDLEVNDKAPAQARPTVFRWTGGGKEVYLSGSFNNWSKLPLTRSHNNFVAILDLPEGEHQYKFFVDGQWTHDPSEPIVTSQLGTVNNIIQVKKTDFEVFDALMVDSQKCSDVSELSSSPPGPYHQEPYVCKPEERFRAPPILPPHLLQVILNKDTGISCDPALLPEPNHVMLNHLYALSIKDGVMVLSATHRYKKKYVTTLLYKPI
Experiment: Activation of recombinant AMPK alpha1/beta1/gamma1 (unknown origin) at 10 uM relative to control
Assay type: protein-complex assay
Conditions: filed as activator
Measured property: Activity (%)

Recorded results for 5 compounds are shown here.
Compound	Reading unit	Numeric readout
CN/C(=N\S(=O)(=O)c1ccc(Cl)cc1)N1C[C@H](c2ccccc2)C(c2ccc(Cl)cc2)=N1	%	100
CC(=O)N/C(N)=N/C(=N/S(=O)(=O)c1ccc(I)cc1)N1C[C@@H](c2ccccc2)C(c2ccc(Cl)cc2)=N1	%	122
CC(=O)N/C(N)=N/C(=N/S(=O)(=O)c1ccc(OC(F)(F)F)cc1)N1C[C@@H](c2ccccc2)C(c2ccc(Cl)cc2)=N1	%	114
CC(=O)N/C(N)=N/C(=N/S(=O)(=O)N1CCC(C(F)(F)F)CC1)N1C[C@H](c2ccccc2)C(c2ccc(Cl)cc2)=N1	%	130
CN(C)/C(N)=N/C(=N/S(=O)(=O)c1ccc(Cl)cc1)N1CC(c2ccccc2)C(c2ccc(Cl)cc2)=N1 (configuration not stated)	%	124

a = CC(C)(C)OC(=O)N/C(N)=N/C(=N/S(=O)(=O)c1ccc(Cl)cc1)N1CC(c2ccccc2)C(c2ccc(Cl)cc2)=N1 (configuration not stated)
b = CN1CCN(/C(N)=N/C(=N/S(=O)(=O)c2ccc(Cl)cc2)N2CC(c3ccccc3)C(c3ccc(Cl)cc3)=N2)CC1 (configuration not stated)
## Input Consider a and b . Which of these has its Activity at a higher number? Refer to your chosen item by its label in the answer.
## Output b

----------
Target: Cannabinoid receptor 1 (Mus musculus)
Test: Displacement of [3H][…] from CB1 receptor in mouse brain plasma membrane by radioligand displacement analysis
Measured property: Ki (nM)

Recorded results for 6 compounds are shown here.
Compound	Ki, nM
CC(=O)N/C(N)=N/C(=N/S(=O)(=O)N1CCCCC1)N1CC(c2ccccc2)C(c2ccc(Cl)cc2)=N1 (stereo not given)	1.6
CC(=O)N/C(N)=N/C(=N/S(=O)(=O)c1ccc(OC(F)(F)F)cc1)N1C[C@@H](c2ccccc2)C(c2ccc(Cl)cc2)=N1	5.3
CC(=O)N/C(N)=N/C(=N/S(=O)(=O)c1ccc(I)cc1)N1C[C@@H](c2ccccc2)C(c2ccc(Cl)cc2)=N1	55
CC(=O)N/C(N)=N/C(=N/S(=O)(=O)c1ccc(Cl)cc1)N1C[C@@H](c2ccccc2)C(c2ccc(Cl)cc2)=N1	103
N/C(=N\C(=N\S(=O)(=O)c1ccc(OC(F)(F)F)cc1)N1CC(c2ccccc2)C(c2ccc(Cl)cc2)=N1)NC(=O)c1ccccc1 (stereo not given)	13
CC(=O)N/C(N)=N/C(=N/S(=O)(=O)c1ccc(Br)cc1)N1CC(c2ccccc2)C(c2ccc(Cl)cc2)=N1 (stereo not given)	0.6

1 = CC(=O)N/C(N)=N/C(=N/S(=O)(=O)c1ccc(Cl)cc1)N1CC(c2ccccc2)C(c2ccc(Cl)cc2)=N1 (stereo not given)
2 = N/C(=N\C(=N\S(=O)(=O)c1ccc(Cl)cc1)N1CC(c2ccccc2)C(c2ccc(Cl)cc2)=N1)NC(=O)c1ccccc1 (stereo not given)
## Input # min-compare on Ki between 1 and 2 Refer to your chosen item by its label in the answer.
## Output 2
(2: 0.8 nM, 1: 2.9 nM)

----------
Molecular target: AMP-activated protein kinase (AMPK) alpha-1/beta-1/gamma-1 (Homo sapiens) (UniProt P54619+Q9Y478+Q13131)
Assay: Activation of recombinant AMPK alpha1/beta1/gamma1 (unknown origin) at 1 uM relative to control
Format: protein-complex assay
Details: filed as activator
Measured property: Activity (%)

Compound	Reading unit	Activity
CC(=O)N/C(N)=N/C(=N/S(=O)(=O)c1ccc(C(C)(C)C)cc1)N1CC(c2ccccc2)C(c2ccc(Cl)cc2)=N1 (stereo unspecified)	%	118
N/C(=N\C(=N\S(=O)(=O)c1ccc(OC(F)(F)F)cc1)N1CC(c2ccccc2)C(c2ccc(Cl)cc2)=N1)NC(=O)c1ccccc1 (stereo unspecified)	%	104
CC(=O)N/C(N)=N/C(=N/S(=O)(=O)c1ccc(C(C)C)cc1)N1CC(c2ccccc2)C(c2ccc(Cl)cc2)=N1 (stereo unspecified)	%	119
CC(=O)N/C(N)=N/C(=N/S(=O)(=O)c1ccc2ccccc2c1)N1CC(c2ccccc2)C(c2ccc(Cl)cc2)=N1 (stereo unspecified)	%	117
CCC(=O)N/C(N)=N/C(=N/S(=O)(=O)c1ccc(Cl)cc1)N1CC(c2ccccc2)C(c2ccc(Cl)cc2)=N1 (stereo unspecified)	%	91
N/C(=N\C(=N\S(=O)(=O)c1ccc(I)cc1)N1CC(c2ccccc2)C(c2ccc(Cl)cc2)=N1)NC(=O)c1ccccc1 (stereo unspecified)	%	96
CC(=O)N/C(N)=N/C(=N/S(=O)(=O)c1ccc(I)cc1)N1CC(c2ccccc2)C(c2ccc(Cl)cc2)=N1 (stereo unspecified)	%	121
COc1ccc(S(=O)(=O)/N=C(/N=C(\N)NC(C)=O)N2CC(c3ccccc3)C(c3ccc(Cl)cc3)=N2)cc1 (stereo unspecified)	%	98

P = CC(C)(C)OC(=O)N/C(N)=N/C(=N/S(=O)(=O)c1ccc(Cl)cc1)N1CC(c2ccccc2)C(c2ccc(Cl)cc2)=N1 (stereo unspecified)
Q = CCCN(CCC)/C(N)=N/C(=N/S(=O)(=O)c1ccc(Cl)cc1)N1CC(c2ccccc2)C(c2ccc(Cl)cc2)=N1 (stereo unspecified)
## Input Consider P and Q . Which of these has its Activity at a higher number? Refer to your chosen item by its label in the answer.
## Output Q
(Q: 175%, P: 101%)

----------
Target: Cannabinoid receptor 1 (Mus musculus, UniProt P47746)
Sequence (P47746 whole entry): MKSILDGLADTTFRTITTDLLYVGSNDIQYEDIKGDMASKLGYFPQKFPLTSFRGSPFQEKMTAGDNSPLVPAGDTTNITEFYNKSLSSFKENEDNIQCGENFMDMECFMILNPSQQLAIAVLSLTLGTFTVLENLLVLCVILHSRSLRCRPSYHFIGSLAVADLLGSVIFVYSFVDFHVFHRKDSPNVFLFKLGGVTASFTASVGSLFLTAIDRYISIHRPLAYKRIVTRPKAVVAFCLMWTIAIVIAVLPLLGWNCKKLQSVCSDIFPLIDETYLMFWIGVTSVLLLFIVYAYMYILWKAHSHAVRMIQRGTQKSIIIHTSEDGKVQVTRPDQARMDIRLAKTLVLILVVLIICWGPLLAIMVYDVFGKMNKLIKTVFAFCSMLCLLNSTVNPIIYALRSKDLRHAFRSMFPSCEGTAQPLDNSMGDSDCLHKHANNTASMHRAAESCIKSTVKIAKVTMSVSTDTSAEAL
Experiment: Antagonist activity at CB1 receptor in mouse brain membrane assessed as inhibition of […]-induced GTPgammaS binding by [35S]GTPgammaS binding analysis
pIC50: −log10 of the molar value.
Measured property: pIC50

Molecule	pIC50
CC(=O)N/C(N)=N/C(=N/S(=O)(=O)c1ccc(OC(F)(F)F)cc1)N1CC(c2ccccc2)C(c2ccc(Cl)cc2)=N1 (stereo not drawn)	8.49
CC(=O)N/C(N)=N/C(=N/S(=O)(=O)N1CCC(C(F)(F)F)CC1)N1C[C@H](c2ccccc2)C(c2ccc(Cl)cc2)=N1	8.62
CC(=O)N/C(N)=N/C(=N/S(=O)(=O)c1ccc(C(C)C)cc1)N1CC(c2ccccc2)C(c2ccc(Cl)cc2)=N1 (stereo not drawn)	8.77

----------
Target: Cannabinoid receptor 1 (Mus musculus, UniProt P47746)
Test: Displacement of [3H][…] from CB1 receptor in mouse brain plasma membrane by radioligand displacement analysis
Measured property: Ki (nM)

Recorded results for 3 compounds are shown here.
Compound	Ki [nM]
N/C(=N\C(=N\S(=O)(=O)c1ccc2ccccc2c1)N1CC(c2ccccc2)C(c2ccc(Cl)cc2)=N1)NC(=O)c1ccccc1 (configuration not stated)	8.1
COc1ccc(S(=O)(=O)/N=C(/N=C(\N)NC(=O)c2ccccc2)N2CC(c3ccccc3)C(c3ccc(Cl)cc3)=N2)cc1 (configuration not stated)	8.5
CN=C(NS(=O)(=O)c1ccc(Cl)cc1)N1C[C@H](c2ccccc2)C(c2ccc(Cl)cc2)=N1	8.1

a = CC(=O)N/C(N)=N/C(=N/S(=O)(=O)c1ccccc1)N1CC(c2ccccc2)C(c2ccc(Cl)cc2)=N1 (configuration not stated)
b = CC(=O)N/C(N)=N/C(=N/S(=O)(=O)N1CCC(C(F)(F)F)CC1)N1C[C@H](c2ccccc2)C(c2ccc(Cl)cc2)=N1
c = CCN(CC)S(=O)(=O)/N=C(/N=C(\N)NC(C)=O)N1CC(c2ccccc2)C(c2ccc(Cl)cc2)=N1 (configuration not stated)
## Input Thanks in advance: please rank these 3 entries by Ki, highest to lowest. Please list the labels in the order you were asked to rank them.
## Output a, c, b
(a: 6.8 nM, c: 1.3 nM, b: 0.5 nM)

----------
Target: AMP-activated protein kinase (AMPK) alpha-1/beta-1/gamma-1 (Homo sapiens) (UniProt P54619+Q9Y478+Q13131)
Test: Activation of recombinant AMPK alpha1/beta1/gamma1 (unknown origin) at 1 uM relative to control
Type: protein-complex assay
Conditions: filed as activator
Measured property: Activity (%)

Recorded results for 5 compounds are shown here.
Compound	Activity / %
CC(=O)N/C(N)=N/C(=N/S(=O)(=O)N1CCOCC1)N1CC(c2ccccc2)C(c2ccc(Cl)cc2)=N1 (stereo unspecified)	162
CC(=O)N/C(N)=N/C(=N/S(=O)(=O)c1ccc(Br)cc1)N1CC(c2ccccc2)C(c2ccc(Cl)cc2)=N1 (stereo unspecified)	94
Cc1ccc(S(=O)(=O)/N=C(/N=C(\N)NC(=O)c2ccccc2)N2CC(c3ccccc3)C(c3ccc(Cl)cc3)=N2)cc1 (stereo unspecified)	102
N/C(=N\C(=N\S(=O)(=O)c1ccc(C(F)(F)F)cc1)N1CC(c2ccccc2)C(c2ccc(Cl)cc2)=N1)NC(=O)c1ccccc1 (stereo unspecified)	101
CCN(CC)S(=O)(=O)/N=C(/N=C(\N)NC(C)=O)N1CC(c2ccccc2)C(c2ccc(Cl)cc2)=N1 (stereo unspecified)	152

A = CCC(=O)N/C(N)=N/C(=N/S(=O)(=O)c1ccc(C(F)(F)F)cc1)N1CC(c2ccccc2)C(c2ccc(Cl)cc2)=N1 (stereo unspecified)
B = CC(=O)N/C(N)=N/C(=N/S(=O)(=O)c1ccc(Cl)cc1)N1CC(c2ccccc2)C(c2ccc(Cl)cc2)=N1 (stereo unspecified)
## Input # min-compare on Activity between A and B Refer to your chosen item by its label in the answer.
## Output A
(A: 96%, B: 142%)
